These data points were gathered from paper PMC12375005.

pIC50: −log10 of the molar value.
pIC50 data for TcGSTm8 (Tetranychus cinnabarinus, UniProt U5YE47) follow.
Parameter Measured: pIC50

>>> result_value("CC1(C)C(C(=O)OC(C#N)c2cccc(Oc3ccccc3)c2)C1(C)C (stereo not drawn)")
2.96
>>> result_value("COCCOC(=O)C(C#N)(C(=O)c1ccccc1C(F)(F)F)c1ccc(C(C)(C)C)cc1 (stereo not drawn)")
2.80
>>> result_value("CCOP(=S)(OCC)Oc1nc(Cl)c(Cl)cc1Cl")
2.93
